# TARGET_OR_SYSTEM: Low molecular weight phosphotyrosine protein phosphatase (Homo sapiens, UniProt P24666);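 note: Dose-response confirmation assay measuring inhibition of LMPTP enzyme activity by fluorescence intensity read-out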
# Sequence (P24666 whole entry): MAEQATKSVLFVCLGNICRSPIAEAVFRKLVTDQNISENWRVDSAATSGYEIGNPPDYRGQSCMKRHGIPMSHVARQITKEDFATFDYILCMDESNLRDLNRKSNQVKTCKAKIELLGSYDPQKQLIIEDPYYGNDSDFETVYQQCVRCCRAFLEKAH
# Assay type: functional
# EXPERIMENTAL_SETUP: read-out: IC50_Mean
Active and inactive are the calls of the source. Cut-off read from the data, not from the text of the source: active = IC50 of 20 µM or less and inactive = more.
Response enum: active, inactive

A selection of reference data follows.
>>> class_name("Nc1nc(N)c(Cc2ccc(Cl)cc2Cl)c(N)n1")
"active"
>>> class_name("CN(C)/C=C/C(=O)c1ccc(OCCN(C)c2ccccn2)cc1")
"inactive"
>>> class_name("CC(C)OCCCNc1nc(-c2ccccc2)nc2ccccc12")
"active"

As a next step, examine the molecule that follows.
Challenge: For CC(=O)Nc1cc(O)c2cccnc2n1 , what call appears in the results of this test?
Response given: inactive
